Measured pKi values are reported for all entries that follow.
experiment: Displacement of [3H]Ro15-1788 from GABA-A receptor benzodiazepine site in bovine brain cerebral cortex membranes; parameters: species or system Bos taurus, Membrane; conditions: read-out: Ki
The scale used: pKi is minus the common logarithm of the concentration in molar units.

>  <Smiles Code>
COc1cccc(-c2cnn3c(=O)c(Cc4ccccc4)c[nH]c23)c1

>  <Measured Parameter>
pKi

>  <Test Result>
7.30

$$$$
>  <Smiles Code>
O=c1c(-c2ccccc2)c[nH]c2c(-c3cccnc3)cnn12

>  <Measured Parameter>
pKi

>  <Test Result>
7.23

$$$$
>  <Smiles Code>
O=c1c(Cc2ccccc2)c[nH]c2c(-c3cccc(C(F)(F)F)c3)cnn12

>  <Measured Parameter>
pKi

>  <Test Result>
7.65

$$$$

compound O=c1c(-c2ccccc2)c[nH]c2c(-c3cccs3)cnn12 , pKi observed: 6.67

// field: pKi; key: Cc1cccc(-c2cnn3c(=O)c(Cc4ccccc4)c[nH]c23)c1 ; value = 7.74

Per the records, this compound ( O=c1c(-c2ccccc2)c[nH]c2c(-c3ccccn3)cnn12 ) has pKi equal to 6.68

The compound O=c1c(Cc2ccccc2)c[nH]c2c(-c3ccc4ccccc4c3)cnn12 showed pKi equal to 7.13

// O=c1c(Cc2ccccc2)c[nH]c2c(-c3ccccc3)cnn12 : pKi value = 6.88

Record O=c1c(-c2ccccc2)c[nH]c2c(-c3cccc(C(F)(F)F)c3)cnn12 . Reported pKi: 6.93

====

organism: Bos taurus; assay: Displacement of [3H]Ro15-1788 from GABA-A receptor benzodiazepine site in bovine brain cerebral cortex membranes at 10 uM relative to control; details: Membrane
Measured inhibition values are reported for all entries that follow.

// known answers, use as guide
>  <Smiles Code>
O=c1c(Cc2ccccc2)c[nH]c2c(-c3ccc(F)cc3)cnn12

>  <Test Result>
> 80%

$$$$
>  <Smiles Code>
O=c1c(-c2ccccc2)c[nH]c2c(-c3ccccc3)cnn12

>  <Test Result>
> 80%

$$$$
>  <Smiles Code>
O=c1c(Cc2ccccc2)c[nH]c2c(-c3cccs3)cnn12

>  <Test Result>
> 80%

$$$$
>  <Smiles Code>
O=c1c(-c2ccccc2)c[nH]c2c(-c3cccnc3)cnn12

>  <Test Result>
> 80%

$$$$
>  <Smiles Code>
O=c1c(Cc2ccccc2)c[nH]c2c(-c3cccnc3)cnn12

>  <Test Result>
> 80%

$$$$

Documented inhibition of O=c1c(Cc2ccccc2)c[nH]c2c(-c3ccccn3)cnn12 : > 80%

Record summary for O=c1c(Cc2ccccc2)c[nH]c2c(-c3ccsc3)cnn12 : reported inhibition = < 80%

Summary for this molecule, O=c1c(-c2ccccc2)c[nH]c2c(-c3ccsc3)cnn12 : inhibition is > 80%

Per the record, O=c1c(Cc2ccccc2)c[nH]c2c(-c3cccc(C(F)(F)F)c3)cnn12 has inhibition of > 80%

Short answer for O=c1c(Cc2ccccc2)c[nH]c2c(-c3ccccc3)cnn12 : inhibition was > 80%

====

assay: Displacement of [3H]Ro15-1788 from GABA-A receptor benzodiazepine site in bovine brain cerebral cortex membranes; parameters: species or system Bos taurus, Membrane

>  <Smiles Code>
O=c1c(Cc2ccccc2)c[nH]c2c(-c3ccsc3)cnn12

>  <Ki>
Not Active

$$$$
>  <Smiles Code>
O=c1c(Cc2ccccc2)c[nH]c2c(Cc3ccccc3)cnn12

>  <Ki>
Not Active

$$$$
>  <Smiles Code>
O=c1c(-c2ccccc2)c[nH]c2c(Cc3ccccc3)cnn12

>  <Ki>
Not Active

$$$$
>  <Smiles Code>
O=c1c(-c2ccccc2)c[nH]c2c(-c3ccc4ccccc4c3)cnn12

>  <Ki>
Not Active

$$$$

====

test: Displacement of [3H]Ro15-1788 from GABA-A receptor benzodiazepine site in bovine brain cerebral cortex membranes; parameters: species or system Bos taurus, Membrane; conditions: read-out: Ki
pKi: −log10 of the molar value.
Use rule met when the recorded pKi is no lower than 7; use rule not met when it is lower.

Below, 8 compounds whose answers are already recorded.
>  <Smiles Code>
O=c1c(-c2ccccc2)c[nH]c2c(-c3cccc4ccccc34)cnn12

>  <Label Value>
rule not met

$$$$
>  <Smiles Code>
O=c1c(-c2ccccc2)c[nH]c2c(-c3cccc(Br)c3)cnn12

>  <Label Value>
rule met

$$$$
>  <Smiles Code>
O=c1c(Cc2ccccc2)c[nH]c2c(-c3ccc(F)cc3)cnn12

>  <Label Value>
rule met

$$$$
>  <Smiles Code>
CN1C(=O)CN=C(c2ccccc2)c2cc(Cl)ccc21

>  <Label Value>
rule met

$$$$
>  <Smiles Code>
O=c1c(-c2ccccc2)c[nH]c2c(-c3ccccc3)cnn12

>  <Label Value>
rule not met

$$$$
>  <Smiles Code>
O=c1c(Cc2ccccc2)c[nH]c2c(-c3ccccn3)cnn12

>  <Label Value>
rule met

$$$$
>  <Smiles Code>
COc1cccc(-c2cnn3c(=O)c(-c4ccccc4)c[nH]c23)c1

>  <Label Value>
rule not met

$$$$
>  <Smiles Code>
O=c1c(Cc2ccccc2)c[nH]c2c(-c3cccc(Br)c3)cnn12

>  <Label Value>
rule met

$$$$

Continue with the compound presented below.
Check the entry O=c1c(Cc2ccccc2)c[nH]c2c(-c3cccs3)cnn12 : does pKi equal or exceed 7?
rule not met

====

Each entry below carries its recorded inhibition.
species: Bos taurus; assay: Displacement of [3H]Ro15-1788 from GABA-A receptor benzodiazepine site in bovine brain cerebral cortex membranes at 10 uM relative to control; conditions: Membrane

According to the records, this molecule O=c1c(-c2ccccc2)c[nH]c2c(Cc3ccccc3)cnn12 displays inhibition of < 80%

Measured inhibition of O=c1c(-c2ccccc2)c[nH]c2c(-c3cccc(C(F)(F)F)c3)cnn12 : > 80%

====

assay: Displacement of [3H]Ro15-1788 from GABA-A receptor benzodiazepine site in bovine brain cerebral cortex membranes; set-up: species or system Bos taurus, Membrane; conditions: read-out: Ki
Binarize Ki at 90 nM; below is t, at or above is f.

Some entries whose results are on file:
>  <Smiles Code>
O=c1c(-c2ccccc2)c[nH]c2c(-c3ccc(F)cc3)cnn12

>  <Label Value>
f

$$$$
>  <Smiles Code>
O=c1c(Cc2ccccc2)c[nH]c2c(-c3cccnc3)cnn12

>  <Label Value>
t

$$$$
>  <Smiles Code>
Cc1cccc(-c2cnn3c(=O)c(-c4ccccc4)c[nH]c23)c1

>  <Label Value>
t

$$$$
>  <Smiles Code>
O=c1c(Cc2ccccc2)c[nH]c2c(-c3cccc4ccccc34)cnn12

>  <Label Value>
f

$$$$

Kindly review the next molecule as well.
Bench note: check whether O=c1c(-c2ccccc2)c[nH]c2c(-c3ccsc3)cnn12 shows Ki below 90 nM
t
